Here is a set of compounds with reported pIC50 for UniProt P06241, compiled from the literature.
pIC50: −log10 of the molar value.

Solved cases below.
Case COCCN1CCC(c2ccc(C(=O)Nc3n[nH]c4nc(Nc5ccccc5F)ccc34)cc2)CC1 , UniProt P06241, pIC50 recorded as 6.62

// assay UniProt P06241, entry COCCN1CCC(Nc2ccc3c(c2)/C(=C(\c2ccc(C(F)(F)F)cc2)c2ncc[nH]2)C(=O)N3)CC1 , pIC50 value = 6.30 to 7.30

The measured pIC50 that COc1cc(Nc2ncnc(-n3c(NCc4cccs4)nc4ccccc43)n2)cc(OC)c1OC showed for UniProt P06241 is 5.31 to 6.09

New cases:
GET /values?item= CCOc1cc(O[C@H]2CCN(C)CC2(F)F)c2c(Nc3c(F)ccc4c3OCO4)ncnc2c1 &system= UniProt P06241 returns pIC50: > 7.00
